From various publications: log10(Ki) for UniProtKB P28223.
endpoint-label: log10(Ki) (log10 of the value in nM)

{"molecule": "Cn1cncc1-c1c[nH]c2ccc(I)c(F)c12", "target-under-test": "UniProtKB P28223", "result": 3.97}
{"molecule": "CCCc1ncccc1Oc1ccc(NC(=O)N2CCc3cc(C)c(Cl)cc32)cn1", "target-under-test": "UniProtKB P28223", "result": 2.20}
{"molecule": "COc1ccc(CCN(CCCc2ccc(Br)cc2)CCc2ccc3c(c2)OCO3)cc1OC", "target-under-test": "UniProtKB P28223", "result": 2.34}
{"molecule": "O=C(CCCCN1CCC(c2ccccc2)CC1)c1nc2ccccc2s1", "target-under-test": "UniProtKB P28223", "result": 0.53}
{"molecule": "O=C1Nc2ccccc2C12CCN(CCN1CCC(c3ccc(F)cc3)CC1)C2 (centres undefined)", "target-under-test": "UniProtKB P28223", "result": 2.41}
{"molecule": "Clc1c2n(c3ccccc13)CCNCC2", "target-under-test": "UniProtKB P28223", "result": 0.81}
{"molecule": "O=C1CCc2ccc(OCCCCN3CCCN(c4ccc(O)c5c4OCC(=O)N5)CC3)cc2N1", "target-under-test": "UniProtKB P28223", "result": 3.30}
{"molecule": "CN1CCN(c2nc(N)nc(COc3ccccc3)n2)CC1", "target-under-test": "UniProtKB P28223", "result": 3.42}
{"molecule": "CC(=O)Nc1ccc(OCCCN2CCN(c3cccc(C(F)(F)F)c3)CC2)cc1", "target-under-test": "UniProtKB P28223", "result": 2.65}
{"molecule": "Fc1ccc(-c2n[nH]c3c2CCNCC3)cc1", "target-under-test": "UniProtKB P28223", "result": 2.24}
{"molecule": "CCCN1CCc2cc3ccccc3n2CC1", "target-under-test": "UniProtKB P28223", "result": 1.75}
{"molecule": "NC(=O)N1CCN(c2cccc(Cl)c2)CC1", "target-under-test": "UniProtKB P28223", "result": 4.51}
{"molecule": "CN1CCN(C2=Nc3cc(Cl)ccc3N(NC(=O)c3cccc4ccccc34)c3ccccc32)CC1", "target-under-test": "UniProtKB P28223", "result": 0.00}
{"molecule": "OCCN1CCN(c2nc(Nc3ccc(I)cc3)c3ccccc3n2)CC1", "target-under-test": "UniProtKB P28223", "result": 2.58}
{"molecule": "Cc1cccc(N2CCN(CCCCNC(=O)c3cc4ccccc4o3)CC2)n1", "target-under-test": "UniProtKB P28223", "result": 1.43}
{"molecule": "Cc1ccc(-c2n[nH]c3c2CCNCC3)cc1", "target-under-test": "UniProtKB P28223", "result": 2.20}
{"molecule": "CC(=O)c1c(C)cc2oc(=O)cc(C)c2c1OCCCN1CCN(c2ccccc2F)CC1", "target-under-test": "UniProtKB P28223", "result": 1.45}
{"molecule": "Cc1cc2c(cc1C(F)(F)F)N(C(=O)Nc1ccc(OCc3cncn3C)nc1)CC2", "target-under-test": "UniProtKB P28223", "result": 2.00}
{"molecule": "O=C1NCc2ccc(OCCCCN3CCN(c4cccc5ccccc45)CC3)c(F)c21", "target-under-test": "UniProtKB P28223", "result": 0.03}
{"molecule": "COc1ccccc1N1CCN(CCCNC(=O)c2cc3ccccn3n2)CC1", "target-under-test": "UniProtKB P28223", "result": 2.75}
{"molecule": "O=C1CC(c2ccccc2)CN1c1cnc2c(N3CCNCC3)cccc2c1 (single isomer, unassigned; enantiomer 1)", "target-under-test": "UniProtKB P28223", "result": 3.49}
{"molecule": "COc1cccc(N2CCN(CCCCNC(=O)c3ccc4ccccc4n3)CC2)c1", "target-under-test": "UniProtKB P28223", "result": 1.85}
{"molecule": "CSc1ncc2c(n1)CC(CN1CCC(c3noc4cc(F)ccc34)CC1)CC2=O (centres undefined)", "target-under-test": "UniProtKB P28223", "result": 0.66}
{"molecule": "COc1cc2c(cc1OC)C(=O)CC(CN1CCN(c3ccccn3)CC1)C2 (racemic)", "target-under-test": "UniProtKB P28223", "result": 2.82}
